- System: Hepatitis C virus NS3 helicase
- ASSAY_TEXT: inhibition of NS3 duplex DNA unwinding by HCV helicase – biochemical, fluorescence, FAM-quenched DNA substrate, full-length NS3, primary screen (AID 1347039)
- EXPERIMENTAL_PARAMETERS: recombinant NS3 DNA unwinding, FAM fluorescence rate; at 30 µM; hits give low values
Results filed as inconclusive are left out.
MEASURED_ENDPOINT: remaining helicase activity (%)
Just the number in %, nothing appended.

CPD_SMILES: O=C1NC(=S)NC(=O)C1=Cc1cn(C(=O)c2ccccc2)c2ccccc12
EXPERIMENTAL_TARGET: Hepatitis C virus NS3 helicase
U: %
VALUE_OBSERVED: 56.3
--
CPD_SMILES: COc1ccc(C(=O)n2cc(C=C3C(=O)NC(=S)NC3=O)c3cc(Cl)ccc32)cc1
EXPERIMENTAL_TARGET: Hepatitis C virus NS3 helicase
U: %
VALUE_OBSERVED: 53.2
--
CPD_SMILES: COc1ccc2c(c1)c(C=C1C(=O)NC(=S)NC1=O)cn2C(=O)c1ccccc1
EXPERIMENTAL_TARGET: Hepatitis C virus NS3 helicase
U: %
VALUE_OBSERVED: 79.2
--
CPD_SMILES: O=C1NC(=S)NC(=O)C1=Cc1cn(C(=O)c2ccc(F)cc2)c2ccccc12
EXPERIMENTAL_TARGET: Hepatitis C virus NS3 helicase
U: %
VALUE_OBSERVED: 51.1

IN: I'm curious: which remaining helicase activity was measured for COc1ccc(C(=O)n2cc(C=C3C(=O)NC(=S)NC3=O)c3cc(Br)ccc32)cc1 tested on Hepatitis C virus NS3 helicase?
OUT: 61.9

====

- Test system: Hepatitis C virus NS3 helicase
- ASSAY_TEXT: inhibition of NS3 duplex DNA unwinding by HCV helicase – biochemical, fluorescence, FAM-quenched DNA substrate, full-length NS3, primary screen (AID 1347039)
- EXPERIMENTAL_PARAMETERS: recombinant NS3 DNA unwinding, FAM fluorescence rate; at 30 µM; hits give low values
Records with an inconclusive call do not appear.
Below, each entry is listed alongside its reported remaining helicase activity.

Below are worked cases with known answers.
CPD_SMILES: COc1ccc2c(c1)c(C=C1C(=O)NC(=S)NC1=O)cn2C(=O)c1cccc2ccccc12
remaining helicase activity: 0%
--
CPD_SMILES: COc1ccc2c(c1)c(C=C1C(=O)NC(=S)NC1=O)cn2C(=O)c1ccc2ccccc2c1
remaining helicase activity: 6.3%

# next molecule below
IN: I have this molecule here, O=C1NC(=S)NC(=O)C1=Cc1cn(C(=O)c2ccc3ccccc3c2)c2ccccc12 , and I need its recorded remaining helicase activity.
OUT: 0%

====

- Tested on: Hepatitis C virus NS3 helicase
- ASSAY_TEXT: inhibition of NS3 duplex DNA unwinding by HCV helicase – biochemical, fluorescence, FAM-quenched DNA substrate, full-length NS3, primary screen (AID 1347039)
- EXPERIMENTAL_PARAMETERS: recombinant NS3 DNA unwinding, FAM fluorescence rate; at 30 µM; hits give low values
Records with an inconclusive call do not appear.
MEASURED_ENDPOINT: remaining helicase activity (%)
Just the number in %, nothing appended.

Below are worked cases with known answers.
CPD_SMILES: O=C1NC(=S)NC(=O)C1=Cc1cn(C(=O)c2cccc3ccccc23)c2ccccc12
MEASURED_ENDPOINT: remaining helicase activity
U: %
VALUE_OBSERVED: 22.3

CPD_SMILES: COc1ccc(C(=O)n2cc(C=C3C(=O)NC(=S)NC3=O)c3cc(OC)ccc32)cc1
MEASURED_ENDPOINT: remaining helicase activity
U: %
VALUE_OBSERVED: 55.2

CPD_SMILES: COc1ccc(C(=O)n2cc(C=C3C(=O)NC(=S)NC3=O)c3ccccc32)cc1
MEASURED_ENDPOINT: remaining helicase activity
U: %
VALUE_OBSERVED: 54.6

CPD_SMILES: O=C1NC(=S)NC(=O)C1=Cc1cn(C(=O)c2cccc3ccccc23)c2ccc(Cl)cc12
MEASURED_ENDPOINT: remaining helicase activity
U: %
VALUE_OBSERVED: 33.4

# next compound below
IN: I have this compound here, O=C1NC(=S)NC(=O)C1=Cc1cn(C(=O)c2ccc3ccccc3c2)c2ccc(Cl)cc12 , and I need its recorded remaining helicase activity.
OUT: 73.3

====

- Test system: Hepatitis C virus NS3 helicase
- ASSAY_TEXT: inhibition of NS3 duplex DNA unwinding by HCV helicase – biochemical, fluorescence, FAM-quenched DNA substrate, full-length NS3, primary screen (AID 1347039)
- EXPERIMENTAL_PARAMETERS: recombinant NS3 DNA unwinding, FAM fluorescence rate; at 30 µM; hits give low values
Inconclusive results are not listed.
MEASURED_ENDPOINT: remaining helicase activity (%)
Just the number in %, nothing appended.

CPD_SMILES: O=C1NC(=S)NC(=O)C1=Cc1cn(C(=O)c2ccccc2Br)c2ccc(Br)cc12
remaining helicase activity / %: 53.2

IN: I have this compound here, O=C1NC(=S)NC(=O)C1=Cc1cn(C(=O)c2ccccc2Br)c2ccccc12 , and I need its recorded remaining helicase activity.
OUT: 63.5

IN: Another compound to check: O=C1NC(=S)NC(=O)C1=Cc1cn(C(=O)c2ccccc2)c2ccc(Cl)cc12
OUT: 73.2

IN: Another compound to check: O=C1NC(=S)NC(=O)C1=Cc1cn(C(=O)c2ccccc2Br)c2ccc(Cl)cc12
OUT: 83.8
